Target: Stromal cell-derived factor 1 (Homo sapiens, UniProt P48061)
Sequence (P48061 whole entry): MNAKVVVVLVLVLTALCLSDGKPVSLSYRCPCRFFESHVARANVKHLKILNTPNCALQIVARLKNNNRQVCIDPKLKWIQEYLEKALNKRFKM
Experiment: Binding affinity to wild type CXCL12 (unknown origin) by NMR spectroscopy
quantity.measured: Kd

compound	quantity.measured	value
O=C(O)CSc1nc(SCC(=O)O)nc(-c2ccc(-c3ccccc3)cc2)n1	Kd	Nd(Insoluble)
O=C(O)CSc1nc(SCC(=O)O)nc(-c2ccc(Oc3ccccc3)cc2)n1	Kd	Nd(Insoluble)
O=C(O)CSc1nc(SCC(=O)O)nc(C2C3CC4CC(C3)CC2C4)n1 (stereo not drawn)	Kd	Not Active
O=C(O)CSc1nc(SCC(=O)O)nc(C2=CCCCC2)n1	Kd	Nd(Insoluble)
O=C(O)c1ccc(Nc2nc(Nc3ccc(C(=O)O)cc3)nc(-c3ccccc3)n2)cc1	Kd	Nd(Insoluble)
O=C(O)CSc1nc(SCC(=O)O)nc(-c2ccoc2)n1	Kd	Nd(Insoluble)

# batch size: 2; output Kd per entry
1. O=C(O)CSc1nc(SCC(=O)O)nc(-c2cnc3ccccc3c2)n1
2. O=C(O)CSc1nc(SCC(=O)O)nc(-c2c3ccccc3cc3ccccc23)n1

Reply text:
1: Nd(Insoluble); 2: Not Active

Recorded values, source ChEMBL document CHEMBL4823329.
